# targetOrSystem: human glucagon receptor (human, UniProt P47871)
# methodSummary: cell-based or functional assay
Starred links: 1 amine or outer side, 2 acyl side, 3 side chain; linkers in the order of their positions; H or OH if unused. Non-standard residues stand in square brackets, D forms with d. Groups on a side chain read outwards from the residue. No end group written: not given here. *: point of attachment. C20 diacid = O=C(O)CCCCCCCCCCCCCCCCCCC(=O)*; γGlu = O=C(O)[C@H](CCC(=O)[*:2])N[*:1]; αMeF = C[C@](N)(Cc1ccccc1)C(=O)O; AEEA = NCCOCCOCC(=O)O; Aib = CC(C)(N)C(=O)O
recordedMetric: hGluc-R EC50 (pM)
# number only, unit pM dropped from output

// hGluc-R EC50 (pM) lookup, binder = H[Aib]HGS[αMeF]TSDVSK[αMeF]LDSRAAK([AEEA-AEEA-γGlu-γGlu-C20 diacid])D[αMeF]VQ[Aib]IANT-NH2 [Peptide 281] , result: 1040

// hGluc-R EC50 (pM) lookup, binder = H[Aib]HGS[αMeF]TSDVSK[αMeF]LDSQAAK([AEEA-AEEA-γGlu-γGlu-C20 diacid])D[αMeF]VQ[Aib]IANT-NH2 [Peptide 256] , result: 1310
